MEASURED_ON: human adenosine A2b receptor (Homo sapiens)
MEASUREMENT_PROTOCOL: Cellular in vitro reporter gene test for A2b receptor activity (antagonism of NECA)
CONDITION_INFO: recombinant CHO-K1 cells, CRE-luciferase reporter, co-incubation with EC50 concentration of NECA, 3 hours
READOUT_NAME: IC50 (nM)

Previously resolved entries follow.
[
  {
    "COMPOUND": "CCc1c(CN2CCNC2=O)sc2c1c(=O)n(C1(C)CC1)c(=O)n2CCC(F)(F)F",
    "MEASURED_ON": "human adenosine A2b receptor (Homo sapiens)",
    "UNIT_SPEC": "nM",
    "IC50": 54
  },
  {
    "COMPOUND": "Cc1c(CN2CCNC2=NC#N)sc2c1c(=O)n(C1CC1C)c(=O)n2CCOC(F)(F)F (single isomer, unassigned) [Example 266]",
    "MEASURED_ON": "human adenosine A2b receptor (Homo sapiens)",
    "UNIT_SPEC": "nM",
    "IC50": 0.96
  },
  {
    "COMPOUND": "CCCCn1c(=O)n(C2CC2)c(=O)c2c(C)c(CN3CCNC3=O)sc21",
    "MEASURED_ON": "human adenosine A2b receptor (Homo sapiens)",
    "UNIT_SPEC": "nM",
    "IC50": 6.9
  }
]

A: Cc1c(CN2CCNC2=O)sc2c1c(=O)n(C1CC(C)(C)C1)c(=O)n2CCC(F)(F)F
B: Cc1c(CN2CCNC2=O)sc2c1c(=O)n(C1(C)CCC1)c(=O)n2CCC(F)(F)F
C: COC(=O)N=C1NCCN1Cc1sc2c(c1C)c(=O)n(C1CCC1)c(=O)n2CCC(F)(F)F
**Query** Given 3 compounds, produce a descending ranking by IC50. Use the labels to give the ranking in the order requested.
**Result** B, A, C

----------
MEASURED_ON: human adenosine A2b receptor (Homo sapiens, UniProt P29275)
Sequence (P29275 whole entry): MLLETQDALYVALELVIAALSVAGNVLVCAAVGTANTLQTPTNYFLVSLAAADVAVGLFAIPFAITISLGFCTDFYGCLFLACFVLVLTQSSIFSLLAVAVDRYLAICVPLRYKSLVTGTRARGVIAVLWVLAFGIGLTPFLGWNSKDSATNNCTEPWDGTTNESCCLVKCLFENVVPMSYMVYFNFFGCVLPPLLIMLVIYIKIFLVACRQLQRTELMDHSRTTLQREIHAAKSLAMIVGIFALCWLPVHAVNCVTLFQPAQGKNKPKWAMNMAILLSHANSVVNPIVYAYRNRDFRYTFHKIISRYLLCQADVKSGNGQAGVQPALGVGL
MEASUREMENT_PROTOCOL: Cellular in vitro reporter gene test for A2b receptor activity (antagonism of NECA)
CONDITION_INFO: recombinant CHO-K1 cells, CRE-luciferase reporter, co-incubation with EC50 concentration of NECA, 3 hours
READOUT_NAME: IC50 (nM)

Previously resolved entries follow.
[
  {
    "MOLECULE": "Cc1c(CN2CCNC2=O)sc2c1c(=O)n([C@H]1C[C@@H]1C)c(=O)n2CC1CCC(F)(F)C1 (single isomer, unassigned) [Example 257]",
    "NUMERIC_READOUT": 6.8
  },
  {
    "MOLECULE": "Cc1c(CN2CCNC2=O)sc2c1c(=O)n(C1CC1C)c(=O)n2CCOC(F)(F)F (single isomer, unassigned) [Example 263]",
    "NUMERIC_READOUT": 1.1
  },
  {
    "MOLECULE": "CCCn1c(=O)n(C2CC2)c(=O)c2c(C)c(Cn3nc[nH]c3=O)sc21",
    "NUMERIC_READOUT": 120
  },
  {
    "MOLECULE": "Cc1c(Cn2nc[nH]c2=O)sc2c1c(=O)n([C@H]1C[C@@H]1C)c(=O)n2CC1CCC1",
    "NUMERIC_READOUT": 8.5
  },
  {
    "MOLECULE": "Cc1c(CN2CCNC2=O)sc2c1c(=O)n(C1CC1C)c(=O)n2CCC(F)(F)F (single isomer, unassigned) [Example 240]",
    "NUMERIC_READOUT": 2.4
  }
]

A: Cc1c(CN2CCNC2=O)sc2c1c(=O)n(C1CC1C)c(=O)n2CC1CCOC1 (single isomer, unassigned) [Example 293]
B: COCCn1c(=O)n(C2CC2C(F)(F)F)c(=O)c2c(C)c(Cn3nc[nH]c3=O)sc21 (single isomer, unassigned) [Example 299]
**Query** Hey, between A and B which has a smaller measured IC50? Please reply using the label of the selected record.
**Result** A
